- tgt: T1, recombinant human FGF23 (R179Q) (human, UniProt Q9GZV9 25-251)
- T1 construct: also called rhFGF23(R179Q); hFGF23(R179Q)
- T1 sequence (looked up): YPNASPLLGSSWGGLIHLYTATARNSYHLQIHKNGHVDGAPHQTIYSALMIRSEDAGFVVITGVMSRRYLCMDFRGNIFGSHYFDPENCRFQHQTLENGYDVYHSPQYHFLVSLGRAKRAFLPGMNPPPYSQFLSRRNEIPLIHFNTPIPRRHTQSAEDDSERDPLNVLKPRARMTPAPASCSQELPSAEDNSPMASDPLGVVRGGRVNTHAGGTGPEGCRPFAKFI
- procedure-summary: SPR, antibody captured on hIgG chip, rhFGF23(R179Q) analyte
Parameter: koff. Scope: all listed entries.
assay-endpoint: koff (s⁻¹)

| binder | assay-endpoint | experimental-result |
| --- | --- | --- |
| UGX201 (antibody, human IgG1, kappa, V domains shown, also called HC:S59E, LC:N92F; S59E/N92F) VH: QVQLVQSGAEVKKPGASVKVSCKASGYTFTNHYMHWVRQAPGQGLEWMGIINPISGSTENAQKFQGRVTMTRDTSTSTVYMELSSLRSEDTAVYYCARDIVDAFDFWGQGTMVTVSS VL: AIQLTQSPSSLSASVGDRVTITCRASQGISSALVWYQQKPGKAPKLLIYDASSLESGVPSRFSGSGSGTDFTLTISSLQPEDFATYYCQQFFDYFTFGPGTKVDIKR | koff | 5.81e-05 |
| UGX157 (antibody, human IgG1, kappa, V domains shown, also called HC:I54Y; I54Y) VH: QVQLVQSGAEVKKPGASVKVSCKASGYTFTNHYMHWVRQAPGQGLEWMGIINPYSGSTSNAQKFQGRVTMTRDTSTSTVYMELSSLRSEDTAVYYCARDIVDAFDFWGQGTMVTVSS VL: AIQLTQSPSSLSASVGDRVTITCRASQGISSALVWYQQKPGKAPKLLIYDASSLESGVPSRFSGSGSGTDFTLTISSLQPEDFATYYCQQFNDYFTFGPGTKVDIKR | koff | 0.000113 |
| UGX144 (antibody, human IgG1, kappa, V domains shown, also called LC:Y94D; Y94D) VH: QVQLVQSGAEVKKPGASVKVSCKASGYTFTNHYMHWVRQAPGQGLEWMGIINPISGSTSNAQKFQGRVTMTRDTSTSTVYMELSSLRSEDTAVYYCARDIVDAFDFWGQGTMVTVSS VL: AIQLTQSPSSLSASVGDRVTITCRASQGISSALVWYQQKPGKAPKLLIYDASSLESGVPSRFSGSGSGTDFTLTISSLQPEDFATYYCQQFNDDFTFGPGTKVDIKR | koff | 6.31e-05 |
